From: patent US20100261711A1

# PROCEDURE_TEXT: Toxicity (TOX), rotorod procedure, mice
# Type: in vivo
# CONDITION_DETAILS: mouse, in vivo; Mice IP, rotorod; read-out: TD50 TOX
For each entry below, report its TD50 value.

// query Give recorded TD50. C#Cc1ccc2c(c1)C(c1ccccc1F)=NCc1c(C(=O)OCC)ncn1-2
// result > 400 mg/kg

// query Give recorded TD50. C#Cc1ccc2c(c1)C(c1ccccn1)=NCc1c(C(=O)OCC)ncn1-2
// result > 500 mg/kg

----------
# TARGET_DESC: GABAA/α4 (α4β3γ2 GABAA receptors) (Homo sapiens, UniProt P18507+P48169)
# Construct: expressed in transfected cells
# PROCEDURE_TEXT: Competitive binding assay, [3H]flunitrazepam
# CONDITION_DETAILS: read-out: Binding Affinity at GABAA/α4; αxβ3γ2, [3H]flunitrazepam competition
# Procedure: The GABAA subunit selectivity of several compounds prepared as described above were determined using competitive binding assays. […] Membranes were harvested with a Brandel cell harvester followed by three ice-cold washes onto polyethyleneimine-pretreated (0.3%) Whatman GF/C filters. […] Bound radioactivity was quantified by liquid scintillation counting. Membrane protein concentrations were determined using an assay kit from Bio-Rad (Hercules, Calif.) with bovine serum albumin as the standard.
pKi: −log10 of the molar value.
METRIC: pKi

// query Give recorded pKi. C#Cc1ccc2c(c1)C(c1ccccc1)=NC(C)c1c(C(=O)OCC)ncn1-2 (single isomer, unassigned)
// result < 5.30
